Values compiled from paper PMC10786891.

Biological target: T1, EsCas13d, nuclease-dead (Eubacterium siraeum, UniProt B0MS50, R295A;H300A;R849A;H854A)
T1 sequence: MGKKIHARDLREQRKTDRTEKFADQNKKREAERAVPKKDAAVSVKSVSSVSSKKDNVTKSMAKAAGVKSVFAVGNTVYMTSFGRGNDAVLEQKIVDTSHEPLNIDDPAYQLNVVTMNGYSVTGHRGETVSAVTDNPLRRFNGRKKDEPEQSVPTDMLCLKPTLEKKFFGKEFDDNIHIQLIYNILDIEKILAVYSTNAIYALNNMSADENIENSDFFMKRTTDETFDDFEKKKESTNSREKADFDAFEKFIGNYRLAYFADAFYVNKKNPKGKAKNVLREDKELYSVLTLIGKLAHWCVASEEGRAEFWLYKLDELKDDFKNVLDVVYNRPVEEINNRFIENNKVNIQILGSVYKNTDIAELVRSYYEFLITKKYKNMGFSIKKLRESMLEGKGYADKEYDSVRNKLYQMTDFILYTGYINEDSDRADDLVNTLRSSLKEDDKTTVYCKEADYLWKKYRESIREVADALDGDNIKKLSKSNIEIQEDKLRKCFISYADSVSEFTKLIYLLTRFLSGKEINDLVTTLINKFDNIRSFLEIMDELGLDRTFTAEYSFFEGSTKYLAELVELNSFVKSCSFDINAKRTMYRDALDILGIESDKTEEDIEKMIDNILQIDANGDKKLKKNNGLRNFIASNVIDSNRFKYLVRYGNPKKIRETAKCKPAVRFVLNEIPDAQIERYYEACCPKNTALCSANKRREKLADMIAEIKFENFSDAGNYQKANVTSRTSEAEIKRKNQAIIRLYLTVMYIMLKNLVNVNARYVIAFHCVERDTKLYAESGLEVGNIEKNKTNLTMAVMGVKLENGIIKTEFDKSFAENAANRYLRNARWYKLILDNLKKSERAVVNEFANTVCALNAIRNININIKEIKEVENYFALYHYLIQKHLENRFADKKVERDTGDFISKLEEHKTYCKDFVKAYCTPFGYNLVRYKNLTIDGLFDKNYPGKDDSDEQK
Assay: crRNA (strand 1, pre-loaded); Mg2+; 40 mM Tris-HCl pH 7.5, 150 mM NaCl, 6 mM MgCl2, 1 mM DTT, 0.1% Tween-20, 0.2 mg/ml BSA; 25 C; 10 min per concentration, then washed
Details: tags: His6-TwinStrep-SUMO cleaved; N-terminal SNAP kept (SNAP-Surface 488); label: 3' end held by stalled T7 RNA polymerase

binder: target 2 MT 5'PFS GCA 3'PFS CGC (mixed) RNA 1: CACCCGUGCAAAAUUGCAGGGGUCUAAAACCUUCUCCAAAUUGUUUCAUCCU RNA 2: GGGAAUGGAUCCACAUCUACGAAUUCGCAAGGAUGAAACAAUUUGGAGAAGCGCAGAUCGGAAGAGCACACGU
Kd [nM]: 13.1
--
binder: target 1 MT 5'PFS CAC 3'PFS CCG (mixed) RNA 1: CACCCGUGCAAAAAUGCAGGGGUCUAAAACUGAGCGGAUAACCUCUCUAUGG RNA 2: GGGAAUGGAUCCACAUCUACGAAUUCCACCCAUAGAGAGGUUAUCCGCUCACCGAGAUCGGAAGAGCACACGU
Kd [nM]: 9.7
